- System: HCC-70
- assay-text: CellTiter-Glo cell proliferation assay
- Assay type: cell-based
- condition-label: Homo sapiens, HCC70, Breast, PTEN
pEC50: −log10 of the molar value.
measured-metric: pEC50

> print(dat)
                      smiles.representation  study.system  measured.metric  test.result
1  Cc1nc(-c2cn3c(n2)-c2ccc(-c4cnn(C(C)(C)C(N)=O)c4)cc2OCC3)n(C(C)C)n1        HCC-70            pEC50         7.37

---

- System: A2058
- assay-text: CellTiter-Glo cell proliferation assay
- Format: cell-based
- condition-label: Homo sapiens, Melanoma, PTEN/B-Raf
measured-metric: EC50 (µM)

> print(dat)
                                   molecule  study.system  unit.string  test.result
1  Cc1nc(-c2cn3c(n2)-c2ccc(-c4cnn(C(C)(C)C(N)=O)c4)cc2OCC3)n(C(C)C)n1 [GDC-0032]         A2058           µM         9.24
